- target: VEGFR-2 (Homo sapiens)
- Construct: endogenous in cells; host or cells: HCT116, PaCa2, MCF7 (human cancer cell lines, ATCC origin)
- assay: cell-based
- Type: cell-based
- experimental-context: at 10 μM, control 326.80 ± 1.9
quantity: VEGFR-2 pg/mL ± SEM PaCa2 (pg/mL)
The figure you give is taken to be in pg/mL; do not add the unit.

Example cases with answers are listed next.
// query Which VEGFR-2 pg/mL ± SEM PaCa2 value belongs to CCOP(=O)(OCC)N1C/C(=C\c2cccs2)C(=O)C2(C1)C(c1cccs1)CN(C)C21C(=O)Nc2ccc(C)cc21 (stereo not shown) [Compound 17t] ?
// result 115.00

// query Which VEGFR-2 pg/mL ± SEM PaCa2 value belongs to CCOP(=O)(OCC)N1C/C(=C\c2ccc(C)cc2)C(=O)C2(C1)C(c1ccc(C)cc1)CN(C)C21C(=O)Nc2ccc(Cl)cc21 (stereo not shown) [Compound 17o] ?
// result 31.64

// query Which VEGFR-2 pg/mL ± SEM PaCa2 value belongs to CCOP(=O)(OCC)N1C/C(=C\c2ccc(Cl)cc2)C(=O)C2(C1)C(c1ccc(Cl)cc1)CN(C)C21C(=O)Nc2ccc(Cl)cc21 (stereo not shown) [Compound 17j] ?
// result 24.78

// query Which VEGFR-2 pg/mL ± SEM PaCa2 value belongs to CCOP(=O)(OCC)N1C/C(=C\c2ccccc2)C(=O)C2(C1)C(c1ccccc1)CN(C)C21C(=O)Nc2ccccc21 (stereo not shown) [Compound 17a] ?
// result 19.26

// query Which VEGFR-2 pg/mL ± SEM PaCa2 value belongs to CCOP(=O)(OCC)N1C/C(=C\c2ccccc2)C(=O)C2(C1)C(c1ccccc1)CN(C)C21C(=O)Nc2ccc(Cl)cc21 (stereo not shown) [Compound 17c] ?
// result 28.43

***
// query Which VEGFR-2 pg/mL ± SEM PaCa2 value belongs to CCOP(=O)(OCC)N1C/C(=C\c2ccc(Cl)cc2)C(=O)C2(C1)C(c1ccc(Cl)cc1)CN(C)C21C(=O)Nc2ccccc21 (stereo not shown) [Compound 17h] ?
// result 18.25

// query Which VEGFR-2 pg/mL ± SEM PaCa2 value belongs to CCOP(=O)(OCC)N1C/C(=C\c2ccccc2)C(=O)C2(C1)C(c1ccccc1)CN(C)C21C(=O)Nc2ccc(F)cc21 (stereo not shown) [Compound 17b] ?
// result 38.75

// query Which VEGFR-2 pg/mL ± SEM PaCa2 value belongs to CCOP(=O)(OCC)N1C/C(=C\c2ccc(Cl)cc2)C(=O)C2(C1)C(c1ccc(Cl)cc1)CN(C)C21C(=O)Nc2ccc(C)cc21 (stereo not shown) [Compound 17k] ?
// result 76.40

// query Which VEGFR-2 pg/mL ± SEM PaCa2 value belongs to CCOP(=O)(OCC)N1C/C(=C\c2ccc(OC)cc2)C(=O)C2(C1)C(c1ccc(OC)cc1)CN(C)C21C(=O)Nc2ccccc21 (stereo not shown) [Compound 17p] ?
// result 21.76

// query Which VEGFR-2 pg/mL ± SEM PaCa2 value belongs to CCOP(=O)(OCC)N1C/C(=C\c2ccc(F)cc2)C(=O)C2(C1)C(c1ccc(F)cc1)CN(C)C21C(=O)Nc2ccccc21 (stereo not shown) [Compound 17e] ?
// result 127.43

// query Which VEGFR-2 pg/mL ± SEM PaCa2 value belongs to CCOP(=O)(OCC)N1C/C(=C\c2ccc(F)cc2)C(=O)C2(C1)C(c1ccc(F)cc1)CN(C)C21C(=O)Nc2ccc(C)cc21 (stereo not shown) [Compound 17g] ?
// result 72.80

// query Which VEGFR-2 pg/mL ± SEM PaCa2 value belongs to CCOP(=O)(OCC)N1C/C(=C\c2cccs2)C(=O)C2(C1)C(c1cccs1)CN(C)C21C(=O)Nc2ccc(Cl)cc21 (stereo not shown) [Compound 17s] ?
// result 26.50

// query Which VEGFR-2 pg/mL ± SEM PaCa2 value belongs to CCOP(=O)(OCC)N1C/C(=C\c2ccc(C)cc2)C(=O)C2(C1)C(c1ccc(C)cc1)CN(C)C21C(=O)Nc2ccccc21 (stereo not shown) [Compound 17m] ?
// result 25.36

###

- target: VEGFR-2 (Homo sapiens, UniProt P35968)
- Construct: endogenous in cells; host or cells: HCT116, PaCa2, MCF7 (human cancer cell lines, ATCC origin)
- Sequence (P35968 20-1356): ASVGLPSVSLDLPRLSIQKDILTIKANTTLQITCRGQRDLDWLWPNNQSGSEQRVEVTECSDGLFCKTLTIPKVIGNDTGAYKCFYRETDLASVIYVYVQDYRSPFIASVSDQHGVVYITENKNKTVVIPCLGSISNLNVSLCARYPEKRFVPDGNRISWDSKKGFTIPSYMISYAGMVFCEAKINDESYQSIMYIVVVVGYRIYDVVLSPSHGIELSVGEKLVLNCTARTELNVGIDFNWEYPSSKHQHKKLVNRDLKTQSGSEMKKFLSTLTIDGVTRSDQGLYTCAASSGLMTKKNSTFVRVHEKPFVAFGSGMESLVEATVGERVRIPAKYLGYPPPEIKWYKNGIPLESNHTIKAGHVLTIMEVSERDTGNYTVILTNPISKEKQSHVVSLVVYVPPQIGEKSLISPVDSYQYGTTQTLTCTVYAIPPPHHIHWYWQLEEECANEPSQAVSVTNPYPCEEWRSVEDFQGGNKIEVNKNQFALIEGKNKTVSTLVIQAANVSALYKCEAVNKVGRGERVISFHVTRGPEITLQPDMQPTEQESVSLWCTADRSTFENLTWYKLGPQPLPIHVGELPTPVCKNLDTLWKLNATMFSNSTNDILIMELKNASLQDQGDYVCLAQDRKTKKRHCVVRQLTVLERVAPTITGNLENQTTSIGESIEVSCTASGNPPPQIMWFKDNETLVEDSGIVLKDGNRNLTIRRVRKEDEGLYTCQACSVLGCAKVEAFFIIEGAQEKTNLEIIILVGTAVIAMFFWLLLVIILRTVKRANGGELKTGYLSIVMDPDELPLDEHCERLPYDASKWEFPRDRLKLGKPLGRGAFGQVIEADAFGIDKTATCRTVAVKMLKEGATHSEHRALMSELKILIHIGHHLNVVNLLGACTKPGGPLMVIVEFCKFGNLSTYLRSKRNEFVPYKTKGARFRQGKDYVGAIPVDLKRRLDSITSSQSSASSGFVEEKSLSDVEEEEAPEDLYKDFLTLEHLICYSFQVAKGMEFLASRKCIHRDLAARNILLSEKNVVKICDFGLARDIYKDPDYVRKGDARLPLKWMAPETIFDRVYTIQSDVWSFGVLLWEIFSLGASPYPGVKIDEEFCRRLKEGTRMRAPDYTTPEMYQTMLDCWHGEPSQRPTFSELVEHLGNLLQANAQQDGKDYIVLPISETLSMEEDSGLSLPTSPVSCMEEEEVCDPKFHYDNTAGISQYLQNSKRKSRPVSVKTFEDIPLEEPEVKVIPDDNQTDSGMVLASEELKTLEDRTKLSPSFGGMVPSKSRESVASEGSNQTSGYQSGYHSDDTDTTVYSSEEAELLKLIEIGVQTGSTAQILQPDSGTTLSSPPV
- assay: cell-based
- Assay type: cell-based
- experimental-context: at 10 μM, control 258.70 ± 2.3
quantity: VEGFR-2 pg/mL ± SEM MCF7 (pg/mL)
The figure you give is taken to be in pg/mL; do not add the unit.

// query Which VEGFR-2 pg/mL ± SEM MCF7 value belongs to CCOP(=O)(OCC)N1C/C(=C\c2ccc(Cl)cc2)C(=O)C2(C1)C(c1ccc(Cl)cc1)CN(C)C21C(=O)Nc2ccc(F)cc21 (centres unmarked) [Compound 17i] ?
// result 49.50

// query Which VEGFR-2 pg/mL ± SEM MCF7 value belongs to CCOP(=O)(OCC)N1C/C(=C\c2ccc(F)cc2)C(=O)C2(C1)C(c1ccc(F)cc1)CN(C)C21C(=O)Nc2ccccc21 (centres unmarked) [Compound 17e] ?
// result 116.50

// query Which VEGFR-2 pg/mL ± SEM MCF7 value belongs to CCOP(=O)(OCC)N1C/C(=C\c2ccc(F)cc2)C(=O)C2(C1)C(c1ccc(F)cc1)CN(C)C21C(=O)Nc2ccc(Cl)cc21 (centres unmarked) [Compound 17f] ?
// result 63.20

// query Which VEGFR-2 pg/mL ± SEM MCF7 value belongs to CCOP(=O)(OCC)N1C/C(=C\c2ccc(F)cc2)C(=O)C2(C1)C(c1ccc(F)cc1)CN(C)C21C(=O)Nc2ccc(C)cc21 (centres unmarked) [Compound 17g] ?
// result 64.80

// query Which VEGFR-2 pg/mL ± SEM MCF7 value belongs to CCOP(=O)(OCC)N1C/C(=C\c2ccc(Cl)cc2)C(=O)C2(C1)C(c1ccc(Cl)cc1)CN(C)C21C(=O)Nc2ccccc21 (centres unmarked) [Compound 17h] ?
// result 52.70

***
// query Which VEGFR-2 pg/mL ± SEM MCF7 value belongs to CCOP(=O)(OCC)N1C/C(=C\c2ccc(C)cc2)C(=O)C2(C1)C(c1ccc(C)cc1)CN(C)C21C(=O)Nc2ccc(Cl)cc21 (centres unmarked) [Compound 17o] ?
// result 38.70

// query Which VEGFR-2 pg/mL ± SEM MCF7 value belongs to CCOP(=O)(OCC)N1C/C(=C\c2ccccc2)C(=O)C2(C1)C(c1ccccc1)CN(C)C21C(=O)Nc2ccccc21 (centres unmarked) [Compound 17a] ?
// result 51.50

// query Which VEGFR-2 pg/mL ± SEM MCF7 value belongs to CCOP(=O)(OCC)N1C/C(=C\c2cccs2)C(=O)C2(C1)C(c1cccs1)CN(C)C21C(=O)Nc2ccc(Cl)cc21 (centres unmarked) [Compound 17s] ?
// result 47.60

// query Which VEGFR-2 pg/mL ± SEM MCF7 value belongs to CCOP(=O)(OCC)N1C/C(=C\c2ccc(Cl)cc2)C(=O)C2(C1)C(c1ccc(Cl)cc1)CN(C)C21C(=O)Nc2ccc(C)cc21 (centres unmarked) [Compound 17k] ?
// result 86.40

// query Which VEGFR-2 pg/mL ± SEM MCF7 value belongs to CCOP(=O)(OCC)N1C/C(=C\c2cccs2)C(=O)C2(C1)C(c1cccs1)CN(C)C21C(=O)Nc2ccccc21 (centres unmarked) [Compound 17q] ?
// result 145.70

// query Which VEGFR-2 pg/mL ± SEM MCF7 value belongs to CCOP(=O)(OCC)N1C/C(=C\c2cccs2)C(=O)C2(C1)C(c1cccs1)CN(C)C21C(=O)Nc2ccc(C)cc21 (centres unmarked) [Compound 17t] ?
// result 96.70

// query Which VEGFR-2 pg/mL ± SEM MCF7 value belongs to CCOP(=O)(OCC)N1C/C(=C\c2ccc(OC)cc2)C(=O)C2(C1)C(c1ccc(OC)cc1)CN(C)C21C(=O)Nc2ccccc21 (centres unmarked) [Compound 17p] ?
// result 48.30

// query Which VEGFR-2 pg/mL ± SEM MCF7 value belongs to CCOP(=O)(OCC)N1C/C(=C\c2ccc(Br)cc2)C(=O)C2(C1)C(c1ccc(Br)cc1)CN(C)C21C(=O)Nc2ccccc21 (centres unmarked) [Compound 17l] ?
// result 73.50

// query Which VEGFR-2 pg/mL ± SEM MCF7 value belongs to CCOP(=O)(OCC)N1C/C(=C\c2ccc(C)cc2)C(=O)C2(C1)C(c1ccc(C)cc1)CN(C)C21C(=O)Nc2ccc(F)cc21 (centres unmarked) [Compound 17n] ?
// result 85.60

###

Recorded IC50 for the following compounds
- Test system: RPE1 (normal human immortalized retinal pigment epithelial cell line)
- assay: cells
- Assay type: cell-based
- experimental-context: Homo sapiens, RPE-1; MTT, normal RPE1 cell; read-out: IC50, μM ± SEM RPE1

Example cases with answers are listed next.
// query Which IC50 value belongs to CCOP(=O)(OCC)N1C/C(=C\c2ccc(C)cc2)C(=O)C2(C1)C(c1ccc(C)cc1)CN(C)C21C(=O)Nc2ccc(Cl)cc21 (stereo not drawn) [Compound 17o] ?
// result > 50 µM

// query Which IC50 value belongs to CCOP(=O)(OCC)N1C/C(=C\c2ccc(C)cc2)C(=O)C2(C1)C(c1ccc(C)cc1)CN(C)C21C(=O)Nc2ccc(F)cc21 (stereo not drawn) [Compound 17n] ?
// result > 50 µM

***
// query Which IC50 value belongs to CCOP(=O)(OCC)N1C/C(=C\c2ccc(Cl)cc2)C(=O)C2(C1)C(c1ccc(Cl)cc1)CN(C)C21C(=O)Nc2ccc(Cl)cc21 (stereo not drawn) [Compound 17j] ?
// result > 50 µM
